Hey, just so you know, these numbers are from patent US20250332173A1.

System: Target C
MEASUREMENT PROTOCOL: HiBiT protein abundance assay, Target C (Promega Nano-Glo HiBiT Lytic Detection System, knock-in K562 cell line)
Format: cell-based, human
CONDITIONS USED: Homo sapiens, K562, 24 h, HiBiT K562 cell line, 24 hours, top dose 10 μM; read-out: Effect on protein abundance, Target C (IC50 category)
pIC50: −log10 of the molar value.
Assign pIC50 to each entry below.

Documented pIC50 of O=c1c2ccc(-c3cn[nH]c3)cc2ncn1C1CCNCC1 [Compound 284] : < 5.00

Documented pIC50 of Cc1cn2cc(-c3ccc4c(=O)n(C5CCNC5)cc(C)c4c3)cc(F)c2n1 (centres unmarked) [Compound 441] : < 5.00

Documented pIC50 of Cc1nc2c(F)cc(-c3ccc4c(c3)CCN(C3CCNCC3)C4=O)cc2o1 [Compound 215] : 5.00 to 6.00

Documented pIC50 of Cc1cn2cc(-c3cc(F)c4c(=O)n(C5CCNCC5(F)F)cnc4c3)cc(F)c2n1 (centres unmarked) [Compound 339] : < 5.00

Documented pIC50 of Cc1c(O)c(-c2ncc3c(=O)n([C@H]4CCN[C@H](C)C4)ccc3n2)cc2cn(C)nc12 [Compound 1461] : 6.00 to 7.00

Documented pIC50 of Cc1cn2nc(-c3ccc4c(=O)n(C5CCNCC5)ccc4c3)cc(Oc3cccnc3)c2n1 [Compound 550] : > 7.00

Documented pIC50 of Cn1cc2cc(-c3cc(F)c4c(=O)n(C5CCNCC5)cnc4c3)cc(C#N)c2n1 [Compound 316] : 6.00 to 7.00

Documented pIC50 of Cc1cn2cc(-c3ccc4c(c3)CCN(C3CCNCC3)C4=O)cc(Cl)c2n1 [Compound 216] : 5.00 to 6.00

Documented pIC50 of Cc1cn2cc(-c3cc(F)c4c(=O)n([C@@H]5CCNC5)ccc4c3)cc(F)c2n1 (single isomer, unassigned) [Compound 395] : 5.00 to 6.00

Documented pIC50 of Cc1cn2cc(-c3cc(F)c4c(=O)n([C@@H]5C[C@@H](C)N[C@@H](C)C5)ccc4c3)cc(F)c2n1 [Compound 642] : 5.00 to 6.00

Documented pIC50 of Cc1cn2nc(-c3cc(O)c4c(=O)n([C@H]5CCNC6(CC6)C5)ncc4c3)cc(C)c2n1 [Compound 469] : > 7.00

Documented pIC50 of CCc1cn(C2CCNCC2)c(=O)c2c(F)cc(-c3cc(F)c4nc(C)cn4c3)cc12 [Compound 558] : 5.00 to 6.00

Documented pIC50 of Cc1cn2nc(-c3cc(O)c4c(=O)n(C5CCNC5)cnc4c3)cc(C)c2n1 (centres unmarked) [Compound 362] : < 5.00

Documented pIC50 of Cn1cc2cc(-n3cnc4cc(C5=CCNCC5)ccc4c3=O)ccc2n1 [Compound 158] : 5.00 to 6.00

Documented pIC50 of Cc1cc(-c2ccc3c(=O)n(C4CCNCC4)ncc3c2)cc2cn(C)nc12 [Compound 251] : 6.00 to 7.00

Documented pIC50 of Cc1c(O)c(-c2cc(F)c3c(=O)n(C4CCNC5(CC5)C4)ccc3c2)cc2cn(C)nc12 (centres unmarked) [Compound 419] : < 5.00

Documented pIC50 of Cc1cn2cc(-c3cc(F)c4c(=O)n(C5CCOC5)cnc4c3)cc(C#N)c2n1 (centres unmarked) [Compound 366] : 5.00 to 6.00

Documented pIC50 of Cc1cn2nc(-c3cc(C)c4c(=O)n(C5CCNC6(CC6)C5)ncc4c3)cc(C)c2n1 (centres unmarked) [Compound 423] : > 7.00

Documented pIC50 of Cc1cn2cc(-c3ccc4c(c3)CCN(C3CCNCC3)C4=O)cc(F)c2n1 [Compound 247] : 5.00 to 6.00

Documented pIC50 of Cn1cc2cc(-c3ncc4c(=O)n(C5CCNCC5)ccc4n3)c(O)cc2n1 [Compound 1211] : 6.00 to 7.00

Documented pIC50 of Cc1cn2cc(-c3cc(F)c4c(=O)n(C5CNCCC5=O)cnc4c3)cc(F)c2n1 (centres unmarked) [Compound 352] : < 5.00

Documented pIC50 of Cc1c(O)c(-c2ncc3c(=O)n(C4C[C@H]5C[C@@H]4CN5)ccc3n2)cc2cn(C)nc12 (stereo in doubt) [Compound 1444] : 6.00 to 7.00

Documented pIC50 of CCN1CCC(n2ncc3cc(-c4cc(C)c5nc(C)cn5n4)cc(O)c3c2=O)CC1 [Compound 542] : > 7.00

Documented pIC50 of Cc1cn2cc(-c3ccc4c(=O)n(C5CCNCC5)ncc4c3)c(C)cc2n1 [Compound 254] : 5.00 to 6.00

Documented pIC50 of Cc1cn2nc(-c3ccc4c(=O)n(C5CCN(C)CC5)ccc4c3)cc(C)c2n1 [Compound 310] : 6.00 to 7.00

Documented pIC50 of Cn1cc2cc(-c3cc(F)c4c(=O)n(C5CCNCC5)cnc4c3)c(F)cc2n1 [Compound 315] : 5.00 to 6.00

---

Test system: MYB mRNA
MEASUREMENT PROTOCOL: RT-qPCR splicing assay, MYB canonical junction (CJ) and alternative junction (AJ) mRNA
Type: cell-based, human
CONDITIONS USED: Homo sapiens; canonical junction qPCR panel, Table 5; read-out: MYB (decrease in CJ mRNA levels, IC50)
Assign IC50 to each entry below.

Documented IC50 of Cc1cn2cc(-n3cnc4ccc(N5CCN(C)CC5)cc4c3=O)cc(F)c2n1 : 1 to 10 µM

Documented IC50 of Cc1c(O)c(-c2ccc3c(=O)n([C@H]4CCNC4)ccc3n2)cc2cn(C)nc12 : 0.1 to 1 µM

Documented IC50 of Cc1c(O)c(-c2nc(C)c3c(=O)n([C@@H]4CCNC5(CC5)C4)ccc3n2)cc2cn(C)nc12 : < 0.1 µM

Documented IC50 of Cc1cn2nc(-c3ccc4c(=O)n([C@@H]5CCN(C)C6(CC6)C5)ncc4n3)cc(C)c2n1 : 0.1 to 1 µM

Documented IC50 of Cc1c(O)c(-c2ncc3c(=O)n(C4C[C@H]5C[C@@H]4CN5)ccc3n2)cc2cn(C)nc12 (stereo in doubt) : 0.1 to 1 µM

Documented IC50 of Cc1cn2cc(-c3ncc4c(=O)n(C5C[C@H](C)N[C@@H](C)C5)ccc4n3)cc(F)c2n1 (stereo partly drawn) : < 0.1 µM

Documented IC50 of CNC12CCC(n3ccc4nc(-c5cc6cn(C)nc6c(C)c5O)ncc4c3=O)(CC1)C2 : < 0.1 µM

Documented IC50 of Cc1cc(-c2ccc3c(=O)[nH]c(N4CCNCC4)nc3c2)cc2cn(C)nc12 : > 10 µM

Documented IC50 of Cc1c(O)c(-c2ncc3c(=O)n(C4CCNC4)ccc3n2)cc2cn(C)nc12 (stereo in doubt) : 0.1 to 1 µM

Documented IC50 of Cc1c(O)c(-c2ncc3c(=O)n([C@H]4CC[C@H](N(C)C)CC4)ccc3n2)cc2cn(C)nc12 : < 0.1 µM

Documented IC50 of Cc1c(O)c(-c2ncc3c(=O)n(C45CCC(N)(CC4)C5)ccc3n2)cc2cn(C)nc12 : 0.1 to 1 µM

Documented IC50 of Cc1cn2nc(-c3ccc4c(=O)n(C5CCNCC5)ncc4n3)cc(C)c2n1 : < 0.1 µM

Documented IC50 of CCN1CCC(n2ncc3nc(-c4cc(C)c5nc(C)cn5n4)ccc3c2=O)CC1 : 0.1 to 1 µM

Documented IC50 of Cc1c(O)c(-c2ncc3c(=O)n([C@@H]4C[C@H]5COC[C@@H](C4)N5)ccc3n2)cc2cn(C)nc12 : < 0.1 µM

Documented IC50 of Cn1cc2cc(-n3cnc4ccc(C5=CCNCC5)cc4c3=O)ccc2n1 : 0.1 to 1 µM

Documented IC50 of Cc1cn2cc(-c3ccc4c(=O)n(C56CCC(N)(CC5)C6)ccc4n3)cc(F)c2n1 : 0.1 to 1 µM

Documented IC50 of Cc1c(O)c(-c2ncc3c(=O)n([C@H]4C[C@H](N)C4)ccc3n2)cc2cn(C)nc12 : 0.1 to 1 µM

Documented IC50 of Cc1c(O)c(-c2ccc3c(=O)n(C4CCNCC4)cc(C)c3n2)cc2cn(C)nc12 : < 0.1 µM

---

System: Target C
MEASUREMENT PROTOCOL: HiBiT protein abundance assay, Target C (Promega Nano-Glo HiBiT Lytic Detection System, knock-in K562 cell line)
Type: cell-based, human
CONDITIONS USED: Homo sapiens, K562, 24 h, HiBiT K562 cell line, 24 hours, top dose 10 μM; read-out: Effect on protein abundance, Target C (IC50 category)
pIC50: −log10 of the molar value.
Assign pIC50 to each entry below.

Case COc1cc2c(=O)n(C3CCNCC3)cnc2cc1-c1cc(C)c2nc(C)cn2n1 , Target C, pIC50 recorded as < 5.00

Case Cc1cn2nc(-c3ccc4c(=O)n([C@H]5CCNC6(CC6)C5)ncc4c3)cc(C)c2n1 , Target C, pIC50 recorded as 5.00 to 6.00

Case Cc1cn2nc(-c3ccc4c(c3F)CCN(C3CCNCC3)C4=O)cc(C)c2n1 , Target C, pIC50 recorded as 5.00 to 6.00

Case COc1c(-c2ccc3c(=O)n(C4CCNCC4)ccc3n2)cc2cn(C)nc2c1C , Target C, pIC50 recorded as < 5.00

Case Cc1cn2nc(-c3cc(F)c4c(=O)n([C@@H]5CCNC6(CC6)C5)cnc4c3)cc(C)c2n1 , Target C, pIC50 recorded as > 7.00

Case Cc1cn2cc(-c3ncc4c(=O)n(C5CCNCC5)ccc4n3)cc(C#N)c2n1 , Target C, pIC50 recorded as 6.00 to 7.00

Case Cc1cn2cc(-c3ccc4c(=O)n([C@@H]5CCCNC5)ccc4c3)cc(F)c2n1 (single isomer, unassigned) , Target C, pIC50 recorded as 5.00 to 6.00
